Target entity: Angiotensin II receptor (Rattus norvegicus) (UniProt P29089+P25095+P35351)
Method notes: In vivo inhibitory percentage of pressor response induced by exogenous submaximal dose of angiotensin-II (3 ug/kg) administered iv to pithed rats
Assay type: functional, organism-based
Endpoint label: inhibition (%)

Below: 4 compounds and their reported inhibition.
INSERT INTO measurements (compound, unit_text, meas_value) VALUES
  ('CCc1nc2c(C)cc(C)nc2n1Cc1ccc(C(CC(=O)O)c2ccccc2)cc1 (stereo unspecified)', '%', 68.5),
  ('CCc1nc2c(C)cc(C)nc2n1Cc1ccc(C(CC(=O)NS(C)(=O)=O)c2ccccc2)cc1 (stereo unspecified)', '%', 72.7),
  ('CCc1nc2c(C)cc(C)nc2n1Cc1ccc(/C(=C(/Br)c2nn[nH]n2)c2ccccc2)cc1 (stereo in doubt; 22c)', '%', 39.9),
  ('CCc1nc2c(C)cc(C)nc2n1Cc1ccc(/C(=C\C(=O)O)c2ccccc2)cc1 (stereo in doubt; 12A)', '%', 30.4);

I. CCc1nc2c(C)cc(C)nc2n1Cc1ccc(C(c2ccc(C)cc2)C(C(=O)O)C(=O)O)cc1 (stereo unspecified)
II. CCc1nc2c(C)cc(C)nc2n1Cc1ccc(C(c2ccccc2)C(C(=O)O)C(F)(F)F)cc1 (stereo unspecified)
Task for the reader: decide whether I or II has the larger inhibition. Return value: the label identifying the chosen record. II

###

Target entity: Angiotensin II receptor (Rattus norvegicus) (UniProt P29089+P25095+P35351)
Method notes: In vivo inhibitory percentage of pressor response induced by exogenous submaximal dose of angiotensin-II (3 ug/kg) administered iv to pithed rats
Assay type: functional, organism-based
Endpoint label: inhibition (%)

INSERT INTO results (molecule, target_entity, endpoint_label, meas_value) VALUES
  ('CCc1nc2c(C)cc(C)nc2n1Cc1ccc(C(CC(=O)O)c2ccccc2F)cc1 (centres undefined)', 'Angiotensin II receptor (Rattus norvegicus) (UniProt P29089+P25095+P35351)', 'inhibition', 68.7),
  ('CCc1nc2c(C)cc(C)nc2n1Cc1ccc(C(CC(=O)O)c2ccc(F)cc2F)cc1 (centres undefined)', 'Angiotensin II receptor (Rattus norvegicus) (UniProt P29089+P25095+P35351)', 'inhibition', 40.4),
  ('CCc1nc2c(C)cc(C)nc2n1Cc1ccc(C(c2ccccc2)C(Cc2ccccc2)C(=O)O)cc1 (centres undefined)', 'Angiotensin II receptor (Rattus norvegicus) (UniProt P29089+P25095+P35351)', 'inhibition', 31.5);

I. CCc1nc2c(C)cc(C)nc2n1Cc1ccc(/C(=C\c2nn[nH]n2)c2ccccc2)cc1 (stereo in doubt; 22a)
II. CCc1nc2c(C)cc(C)nc2n1Cc1ccc(C(c2ccccc2)C(C#N)C(=O)O)cc1 (centres undefined)
Param metric = inhibition; output whichever of I , II has the minimum value. Return value: the label identifying the chosen record. I
(I: 41%, II: 68.7%)

a. CCc1nc2c(C)cc(C)nc2n1Cc1ccc(C(c2ccccc2)C(C)(C)C(=O)O)cc1 (centres undefined)
b. CCc1nc2c(C)cc(C)nc2n1Cc1ccc(C(c2ccccc2)C(C)C(=O)O)cc1 (centres undefined)
c. CCc1nc2c(C)cc(C)nc2n1Cc1ccc(/C(=C\C(=O)O)c2ccccc2)cc1 (stereo in doubt; 12B)
Hey, quick one: sort these by inhibition, low to high? In your reply, arrange the labels in the requested order. c, a, b

I. CCc1nc2c(C)cc(C)nc2n1Cc1ccc(C(Cc2nnn[nH]2)c2ccccc2)cc1 (centres undefined)
II. CCc1nc2c(C)cc(C)nc2n1Cc1ccc(/C(=C(/Br)c2nn[nH]n2)c2ccccc2)cc1 (stereo in doubt; 22d)
Task for the reader: decide whether I or II has the larger inhibition. Return value: the label identifying the chosen record. I

1. CCc1nc2c(C)cc(C)nc2n1Cc1ccc(C(CC)C(C)C(=O)O)cc1 (centres undefined)
2. CCc1nc2c(C)cc(C)nc2n1Cc1ccc(C(c2ccccc2)C(CC)C(=O)O)cc1 (centres undefined)
3. CCc1nc2c(C)cc(C)nc2n1Cc1ccc(C(C(C)C)C(C)C(=O)O)cc1 (centres undefined)
Hey, quick one: sort these by inhibition, low to high? In your reply, arrange the labels in the requested order. 3, 1, 2

A. CCc1nc2c(C)cc(C)nc2n1Cc1ccc(C(C)C(C)C(=O)O)cc1 (centres undefined)
B. CCc1nc2c(C)cc(C)nc2n1Cc1ccc(C(CC(=O)O)c2ccccc2Cl)cc1 (centres undefined)
Task for the reader: decide whether A or B has the larger inhibition. Return value: the label identifying the chosen record. B
(B: 69.1%, A: 46%)

a. CCc1nc2c(C)cc(C)nc2n1Cc1ccc(C(c2ccccc2)C(Br)C(=O)O)cc1 (centres undefined)
b. CCc1nc2c(C)cc(C)nc2n1Cc1ccc(C(c2ccccc2)C(C(=O)O)C(=O)O)cc1 (centres undefined)
Task for the reader: decide whether a or b has the larger inhibition. Return value: the label identifying the chosen record. b
(b: 79.9%, a: 47.1%)

###

Target entity: Angiotensin II receptor (Rattus norvegicus) (UniProt P29089+P25095+P35351)
Method notes: In vivo inhibitory percentage of pressor response induced by exogenous submaximal dose of angiotensin-II (3 ug/kg) administered iv to pithed rats
Format: functional, organism-based
Endpoint label: inhibition (%)

I. CCc1nc2c(C)cc(C)nc2n1Cc1ccc(C(CC(=O)NS(=O)(=O)c2ccccc2)c2ccccc2)cc1 (centres undefined)
II. CCc1nc2c(C)cc(C)nc2n1Cc1ccc(C(=C(C(=O)O)C(=O)O)c2ccccc2)cc1
Task for the reader: decide whether I or II has the larger inhibition. Return value: the label identifying the chosen record. II

###

Test system: Rattus norvegicus
Method notes: In vivo inhibitory percentage of pressor response induced by exogenous submaximal dose of angiotensin -II […] administered iv to pithed rats
Type: functional
Endpoint label: Inhibition (%)
Report only the number, with the unit % understood.

Below: 4 compounds and their reported Inhibition.
INSERT INTO assay_data (compound, unit_text, meas_value) VALUES
  ('CCc1nc2c(C)cc(C)nc2n1Cc1ccc([C@H](c2ccccc2)[C@H](CC)C(=O)O)cc1', '%', 73.3),
  ('CCC[C@H](C(=O)O)[C@@H](c1ccccc1)c1ccc(Cn2c(CC)nc3c(C)cc(C)nc32)cc1', '%', 64),
  ('CCc1nc2c(C)cc(C)nc2n1Cc1ccc([C@H](c2ccccc2)[C@H](C)C(=O)NS(C)(=O)=O)cc1', '%', 55.9),
  ('CCCCc1nc(Cl)c(CO)n1Cc1ccc(-c2ccccc2-c2nnn[nH]2)cc1', '%', 62.5);

We next turn to a different compound, shown below.
State, in one line, measured Inhibition of CCc1nc2c(C)cc(C)nc2n1Cc1ccc([C@H](c2ccccc2)[C@H](C)C(=O)O)cc1 (stereo in doubt; 36g) 68.5

###

Target entity: Angiotensin II receptor (AT-1) type-1 (Rattus norvegicus, UniProt P29089+P25095)
Sequence (P29089 whole entry): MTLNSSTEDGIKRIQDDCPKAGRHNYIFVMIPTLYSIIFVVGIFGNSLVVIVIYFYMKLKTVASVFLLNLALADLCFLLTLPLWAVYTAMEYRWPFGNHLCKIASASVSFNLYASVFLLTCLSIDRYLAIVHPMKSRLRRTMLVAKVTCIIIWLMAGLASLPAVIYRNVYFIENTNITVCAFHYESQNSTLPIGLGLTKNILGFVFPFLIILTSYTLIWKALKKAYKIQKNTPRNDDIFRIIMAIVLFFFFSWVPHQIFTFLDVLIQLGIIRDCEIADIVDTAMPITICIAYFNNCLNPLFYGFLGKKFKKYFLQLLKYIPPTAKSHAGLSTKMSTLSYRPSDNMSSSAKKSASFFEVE
Sequence (P25095 whole entry): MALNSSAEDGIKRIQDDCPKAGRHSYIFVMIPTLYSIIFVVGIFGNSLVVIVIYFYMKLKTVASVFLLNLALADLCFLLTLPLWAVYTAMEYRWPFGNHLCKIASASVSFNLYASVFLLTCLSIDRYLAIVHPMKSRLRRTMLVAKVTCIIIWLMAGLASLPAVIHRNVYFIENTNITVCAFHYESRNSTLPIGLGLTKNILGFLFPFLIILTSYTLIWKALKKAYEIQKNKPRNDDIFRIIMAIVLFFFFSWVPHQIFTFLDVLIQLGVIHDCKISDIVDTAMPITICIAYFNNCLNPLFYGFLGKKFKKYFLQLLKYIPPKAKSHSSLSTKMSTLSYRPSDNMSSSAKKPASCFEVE
Method notes: Inhibitory concentration was evaluated by measuring displacement of [3H]AII from rat liver Angiotensin II receptor, type 1
Endpoint label: IC50 (nM)

a. CCc1nc2c(C)cc(C)nc2n1Cc1ccc(C(=C(C(=O)O)C(=O)O)c2ccccc2)cc1
b. CCc1nc2c(C)cc(C)nc2n1Cc1ccc(C(CC(=O)O)c2ccccc2F)cc1 (stereo not given)
c. CCC[C@H](C(=O)O)[C@@H](c1ccccc1)c1ccc(Cn2c(CC)nc3c(C)cc(C)nc32)cc1
Please rank these compounds by IC50 in descending order. In your reply, arrange the labels in the requested order. a, b, c
(a: 320 nM, b: 130 nM, c: 83 nM)

a. CCc1nc2c(C)cc(C)nc2n1Cc1ccc(C(CC(=O)NS(C)(=O)=O)c2ccccc2)cc1 (stereo not given)
b. CCc1nc2c(C)cc(C)nc2n1Cc1ccc(C(CC)C(C)C(=O)O)cc1 (stereo not given)
Param metric = IC50; output whichever of a , b has the minimum value. Return value: the label identifying the chosen record. a
